experimental system: Heat shock protein HSP 90-alpha (Homo sapiens, UniProt P07900)
assay overview: Competitive binding towards Heat shock protein HSP 90-alpha

molecular string	operator	EC50 [µM]
CO[C@H]1/C=C\C=C(/C)C(=O)NC2=CC(=O)C(NCCCOc3ccc4c(=O)cc(N5CCOCC5)oc4c3)=C(C[C@@H](C)C[C@H](OC)[C@H](O)[C@@H](C)/C=C(\C)[C@@H]1OC(N)=O)C2=O	=	26
CO[C@H]1/C=C\C=C(/C)C(=O)NC2=CC(=O)C(NCC#Cc3cccc4c(=O)cc(N5CCOCC5)oc34)=C(C[C@@H](C)C[C@H](OC)[C@H](O)[C@@H](C)/C=C(\C)[C@@H]1OC(N)=O)C2=O	=	7
CO[C@H]1/C=C\C=C(/C)C(=O)NC2=CC(=O)C(NCCCCCCOc3ccc4c(=O)cc(N5CCOCC5)oc4c3)=C(C[C@@H](C)C[C@H](OC)[C@H](O)[C@@H](C)/C=C(\C)[C@@H]1OC(N)=O)C2=O	=	4
CO[C@H]1/C=C\C=C(/C)C(=O)NC2=CC(=O)C(NCCOCCOc3ccc4c(=O)cc(N5CCOCC5)oc4c3C)=C(C[C@@H](C)C[C@H](OC)[C@H](O)[C@@H](C)/C=C(\C)[C@@H]1OC(N)=O)C2=O	>	50
CO[C@H]1/C=C\C=C(/C)C(=O)NC2=CC(=O)C(NCCCCCCCCOc3ccc4c(=O)cc(N5CCOCC5)oc4c3C)=C(C[C@@H](C)C[C@H](OC)[C@H](O)[C@@H](C)/C=C(\C)[C@@H]1OC(N)=O)C2=O	=	28

###

experimental system: DNA-dependent protein kinase catalytic subunit (Homo sapiens, UniProt P78527)
Sequence (P78527 whole entry): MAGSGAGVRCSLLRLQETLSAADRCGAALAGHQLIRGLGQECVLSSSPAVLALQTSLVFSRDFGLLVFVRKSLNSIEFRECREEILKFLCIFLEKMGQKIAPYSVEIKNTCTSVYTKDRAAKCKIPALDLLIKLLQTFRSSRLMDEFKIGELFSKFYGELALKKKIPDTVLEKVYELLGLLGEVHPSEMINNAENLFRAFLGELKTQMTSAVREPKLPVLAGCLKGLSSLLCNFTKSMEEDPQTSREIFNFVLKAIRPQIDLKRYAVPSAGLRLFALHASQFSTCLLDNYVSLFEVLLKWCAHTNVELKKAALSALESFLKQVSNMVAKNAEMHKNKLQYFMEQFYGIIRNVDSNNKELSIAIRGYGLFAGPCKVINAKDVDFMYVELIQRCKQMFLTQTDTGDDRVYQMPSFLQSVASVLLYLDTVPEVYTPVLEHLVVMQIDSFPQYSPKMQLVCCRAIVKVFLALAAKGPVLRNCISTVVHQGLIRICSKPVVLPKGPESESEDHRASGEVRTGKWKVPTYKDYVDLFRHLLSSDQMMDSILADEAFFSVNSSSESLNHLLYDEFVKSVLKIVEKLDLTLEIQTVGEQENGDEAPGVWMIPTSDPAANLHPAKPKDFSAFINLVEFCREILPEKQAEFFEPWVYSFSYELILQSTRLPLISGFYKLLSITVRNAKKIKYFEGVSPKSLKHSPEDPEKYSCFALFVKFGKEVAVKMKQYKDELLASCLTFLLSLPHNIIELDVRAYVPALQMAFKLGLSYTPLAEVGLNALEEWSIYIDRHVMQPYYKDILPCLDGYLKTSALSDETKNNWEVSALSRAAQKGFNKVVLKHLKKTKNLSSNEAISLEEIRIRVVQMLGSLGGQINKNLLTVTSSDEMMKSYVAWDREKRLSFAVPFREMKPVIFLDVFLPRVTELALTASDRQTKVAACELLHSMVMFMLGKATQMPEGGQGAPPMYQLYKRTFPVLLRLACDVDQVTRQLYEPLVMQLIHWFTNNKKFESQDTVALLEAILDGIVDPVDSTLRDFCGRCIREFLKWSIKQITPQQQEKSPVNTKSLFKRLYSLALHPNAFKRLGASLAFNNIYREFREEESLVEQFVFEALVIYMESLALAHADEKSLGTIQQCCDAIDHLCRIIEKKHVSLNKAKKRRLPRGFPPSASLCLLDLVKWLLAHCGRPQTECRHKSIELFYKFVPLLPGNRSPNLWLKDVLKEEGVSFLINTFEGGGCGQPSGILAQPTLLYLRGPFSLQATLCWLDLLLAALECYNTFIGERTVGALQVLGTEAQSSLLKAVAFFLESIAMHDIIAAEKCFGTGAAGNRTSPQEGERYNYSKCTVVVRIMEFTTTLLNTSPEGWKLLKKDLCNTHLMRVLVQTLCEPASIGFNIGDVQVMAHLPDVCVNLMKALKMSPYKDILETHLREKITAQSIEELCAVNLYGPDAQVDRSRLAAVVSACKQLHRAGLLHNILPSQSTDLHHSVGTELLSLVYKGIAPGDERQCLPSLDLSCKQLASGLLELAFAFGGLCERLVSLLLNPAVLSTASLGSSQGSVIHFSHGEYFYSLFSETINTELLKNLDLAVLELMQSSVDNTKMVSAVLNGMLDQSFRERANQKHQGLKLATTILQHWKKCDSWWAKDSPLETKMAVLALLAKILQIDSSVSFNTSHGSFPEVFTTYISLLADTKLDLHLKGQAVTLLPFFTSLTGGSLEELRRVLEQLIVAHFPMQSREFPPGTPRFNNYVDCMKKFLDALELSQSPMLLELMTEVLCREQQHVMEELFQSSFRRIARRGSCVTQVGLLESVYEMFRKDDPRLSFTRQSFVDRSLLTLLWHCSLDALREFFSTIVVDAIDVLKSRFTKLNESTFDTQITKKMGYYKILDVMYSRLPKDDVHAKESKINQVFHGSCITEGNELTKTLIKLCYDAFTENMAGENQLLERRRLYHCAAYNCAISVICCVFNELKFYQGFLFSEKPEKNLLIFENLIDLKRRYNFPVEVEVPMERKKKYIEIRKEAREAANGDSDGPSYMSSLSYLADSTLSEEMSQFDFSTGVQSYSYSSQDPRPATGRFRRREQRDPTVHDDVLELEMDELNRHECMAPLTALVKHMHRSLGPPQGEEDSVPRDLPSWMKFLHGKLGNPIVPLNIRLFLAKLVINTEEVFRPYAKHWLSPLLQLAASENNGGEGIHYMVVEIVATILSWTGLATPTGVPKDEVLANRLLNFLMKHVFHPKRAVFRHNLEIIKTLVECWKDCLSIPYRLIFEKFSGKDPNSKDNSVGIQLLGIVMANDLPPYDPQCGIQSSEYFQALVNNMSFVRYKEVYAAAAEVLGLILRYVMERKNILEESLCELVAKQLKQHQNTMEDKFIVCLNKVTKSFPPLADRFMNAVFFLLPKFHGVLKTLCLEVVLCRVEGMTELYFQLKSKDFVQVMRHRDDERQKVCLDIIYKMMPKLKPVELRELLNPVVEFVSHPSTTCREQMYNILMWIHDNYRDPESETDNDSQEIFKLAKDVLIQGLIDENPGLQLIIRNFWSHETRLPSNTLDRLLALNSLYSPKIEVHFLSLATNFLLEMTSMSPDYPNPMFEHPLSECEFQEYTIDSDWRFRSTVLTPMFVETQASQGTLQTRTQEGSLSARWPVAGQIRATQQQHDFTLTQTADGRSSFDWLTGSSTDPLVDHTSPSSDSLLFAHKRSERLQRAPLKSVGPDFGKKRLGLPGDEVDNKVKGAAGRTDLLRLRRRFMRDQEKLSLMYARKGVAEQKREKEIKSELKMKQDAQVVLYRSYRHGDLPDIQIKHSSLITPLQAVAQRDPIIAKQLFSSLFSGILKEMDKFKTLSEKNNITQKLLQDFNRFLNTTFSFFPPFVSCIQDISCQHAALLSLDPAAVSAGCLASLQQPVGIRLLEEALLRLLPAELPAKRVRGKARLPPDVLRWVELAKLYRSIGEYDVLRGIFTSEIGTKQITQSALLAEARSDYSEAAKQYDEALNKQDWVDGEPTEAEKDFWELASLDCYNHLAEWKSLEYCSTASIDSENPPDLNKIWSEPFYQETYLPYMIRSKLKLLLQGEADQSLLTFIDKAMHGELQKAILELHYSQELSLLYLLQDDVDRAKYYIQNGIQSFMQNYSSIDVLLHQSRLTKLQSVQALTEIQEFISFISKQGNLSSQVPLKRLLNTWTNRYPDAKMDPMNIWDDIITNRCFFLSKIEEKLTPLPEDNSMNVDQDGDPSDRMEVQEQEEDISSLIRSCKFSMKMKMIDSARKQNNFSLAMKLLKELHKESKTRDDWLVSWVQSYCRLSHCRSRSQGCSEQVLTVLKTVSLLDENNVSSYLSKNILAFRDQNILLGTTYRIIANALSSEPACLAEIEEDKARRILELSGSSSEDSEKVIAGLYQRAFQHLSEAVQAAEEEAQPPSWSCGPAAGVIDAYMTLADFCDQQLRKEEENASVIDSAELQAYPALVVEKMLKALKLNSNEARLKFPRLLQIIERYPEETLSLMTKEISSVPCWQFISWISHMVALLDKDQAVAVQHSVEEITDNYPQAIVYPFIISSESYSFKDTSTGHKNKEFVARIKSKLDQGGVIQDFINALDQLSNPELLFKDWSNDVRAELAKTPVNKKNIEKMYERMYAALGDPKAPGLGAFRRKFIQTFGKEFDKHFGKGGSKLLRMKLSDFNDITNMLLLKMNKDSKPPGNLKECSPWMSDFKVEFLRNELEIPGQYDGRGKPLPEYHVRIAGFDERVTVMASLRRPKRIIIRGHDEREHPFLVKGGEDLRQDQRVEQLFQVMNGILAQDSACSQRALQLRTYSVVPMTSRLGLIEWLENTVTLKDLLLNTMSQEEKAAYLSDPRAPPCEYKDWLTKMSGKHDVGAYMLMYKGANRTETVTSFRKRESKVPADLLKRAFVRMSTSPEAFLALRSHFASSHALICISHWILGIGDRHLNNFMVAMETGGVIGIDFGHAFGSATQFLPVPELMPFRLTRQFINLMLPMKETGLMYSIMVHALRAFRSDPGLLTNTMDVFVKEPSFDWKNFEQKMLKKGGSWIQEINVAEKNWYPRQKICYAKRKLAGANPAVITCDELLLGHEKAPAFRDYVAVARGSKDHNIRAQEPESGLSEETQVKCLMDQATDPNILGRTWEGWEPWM
assay overview: Inhibition of DNA dependent protein kinase activity without hsp90 alpha protein
Listed compounds paired with reported IC50

molecular string	unit name	operator	IC50
CO[C@H]1/C=C\C=C(/C)C(=O)NC2=CC(=O)C(NCCCCCCOc3ccc4c(=O)cc(N5CCOCC5)oc4c3)=C(C[C@@H](C)C[C@H](OC)[C@H](O)[C@@H](C)/C=C(\C)[C@@H]1OC(N)=O)C2=O	µM	=	6.1
CO[C@H]1/C=C\C=C(/C)C(=O)NC2=CC(=O)C(NCCCOc3ccc4c(=O)cc(N5CCOCC5)oc4c3)=C(C[C@@H](C)C[C@H](OC)[C@H](O)[C@@H](C)/C=C(\C)[C@@H]1OC(N)=O)C2=O	µM	=	28
CO[C@H]1/C=C\C=C(/C)C(=O)NC2=CC(=O)C(NCCCCOc3ccc4c(=O)cc(N5CCOCC5)oc4c3)=C(C[C@@H](C)C[C@H](OC)[C@H](O)[C@@H](C)/C=C(\C)[C@@H]1OC(N)=O)C2=O	µM	=	13.9
CO[C@H]1/C=C\C=C(/C)C(=O)NC2=CC(=O)C(NCCCCCOc3ccc4c(=O)cc(N5CCOCC5)oc4c3)=C(C[C@@H](C)C[C@H](OC)[C@H](O)[C@@H](C)/C=C(\C)[C@@H]1OC(N)=O)C2=O	µM	=	10
CO[C@H]1/C=C\C=C(/C)C(=O)NC2=CC(=O)C(NCCCCCCCCOc3ccc4c(=O)cc(N5CCOCC5)oc4c3C)=C(C[C@@H](C)C[C@H](OC)[C@H](O)[C@@H](C)/C=C(\C)[C@@H]1OC(N)=O)C2=O	µM	=	1.75
CO[C@H]1/C=C\C=C(/C)C(=O)NC2=CC(=O)C(NCCOCCOc3ccc4c(=O)cc(N5CCOCC5)oc4c3C)=C(C[C@@H](C)C[C@H](OC)[C@H](O)[C@@H](C)/C=C(\C)[C@@H]1OC(N)=O)C2=O	µM	=	12.2
CO[C@H]1/C=C\C=C(/C)C(=O)NC2=CC(=O)C(NCCCC#Cc3cccc4c(=O)cc(N5CCOCC5)oc34)=C(C[C@@H](C)C[C@H](OC)[C@H](O)[C@@H](C)/C=C(\C)[C@@H]1OC(N)=O)C2=O	µM	=	13.4
CO[C@H]1/C=C\C=C(/C)C(=O)NC2=CC(=O)C(NCCCCCCCOc3ccc4c(=O)cc(N5CCOCC5)oc4c3C)=C(C[C@@H](C)C[C@H](OC)[C@H](O)[C@@H](C)/C=C(\C)[C@@H]1OC(N)=O)C2=O	µM	=	3.7
O=c1cc(N2CCOCC2)oc2ccccc12	µM	=	4.3
C=CCNC1=C2C[C@@H](C)C[C@H](OC)[C@H](O)[C@@H](C)/C=C(\C)[C@H](OC(N)=O)[C@@H](OC)/C=C\C=C(/C)C(=O)NC(=CC1=O)C2=O	µM	>	40
CO[C@H]1/C=C\C=C(/C)C(=O)NC2=CC(=O)C(NCC#Cc3cccc4c(=O)cc(N5CCOCC5)oc34)=C(C[C@@H](C)C[C@H](OC)[C@H](O)[C@@H](C)/C=C(\C)[C@@H]1OC(N)=O)C2=O	µM	=	3
CO[C@H]1/C=C\C=C(/C)C(=O)NC2=CC(=O)C(NCCOCCOc3ccc4c(=O)cc(N5CCOCC5)oc4c3)=C(C[C@@H](C)C[C@H](OC)[C@H](O)[C@@H](C)/C=C(\C)[C@@H]1OC(N)=O)C2=O	µM	=	33

###

experimental system: Heat shock protein HSP 90-alpha (Homo sapiens, UniProt P07900)
assay overview: Competitive binding towards Heat shock protein HSP 90-alpha
Listed compounds paired with reported EC50
outcome measure: EC50 (µM)

molecular string	operator	recorded measurement
CO[C@H]1/C=C\C=C(/C)C(=O)NC2=CC(=O)C(NCCCCCOc3ccc4c(=O)cc(N5CCOCC5)oc4c3)=C(C[C@@H](C)C[C@H](OC)[C@H](O)[C@@H](C)/C=C(\C)[C@@H]1OC(N)=O)C2=O	=	2.5
O=c1cc(N2CCOCC2)oc2ccccc12	>	50
CO[C@H]1/C=C\C=C(/C)C(=O)NC2=CC(=O)C(NCCCCOc3ccc4c(=O)cc(N5CCOCC5)oc4c3)=C(C[C@@H](C)C[C@H](OC)[C@H](O)[C@@H](C)/C=C(\C)[C@@H]1OC(N)=O)C2=O	=	10
CO[C@H]1/C=C\C=C(/C)C(=O)NC2=CC(=O)C(NCCCC#Cc3cccc4c(=O)cc(N5CCOCC5)oc34)=C(C[C@@H](C)C[C@H](OC)[C@H](O)[C@@H](C)/C=C(\C)[C@@H]1OC(N)=O)C2=O	>	50
CO[C@H]1/C=C\C=C(/C)C(=O)NC2=CC(=O)C(NCCOCCOc3ccc4c(=O)cc(N5CCOCC5)oc4c3)=C(C[C@@H](C)C[C@H](OC)[C@H](O)[C@@H](C)/C=C(\C)[C@@H]1OC(N)=O)C2=O	=	16
CO[C@H]1/C=C\C=C(/C)C(=O)NC2=CC(=O)C(NCCCCCCCOc3ccc4c(=O)cc(N5CCOCC5)oc4c3C)=C(C[C@@H](C)C[C@H](OC)[C@H](O)[C@@H](C)/C=C(\C)[C@@H]1OC(N)=O)C2=O	=	46

###

assay overview: Inhibition of Phoshoinositol 3 kinase
Design: species or system Homo sapiens

molecular string	unit name	IC50
O=c1cc(N2CCOCC2)oc2c1ccc1ccccc12	µM	6

###

experimental system: DNA-dependent protein kinase catalytic subunit (Homo sapiens)
assay overview: Inhibition of DNA dependent protein kinase with hsp90 alpha protein

molecular string	experimental system	IC50 (µM)
CO[C@H]1/C=C\C=C(/C)C(=O)NC2=CC(=O)C(NCCCCCOc3ccc4c(=O)cc(N5CCOCC5)oc4c3)=C(C[C@@H](C)C[C@H](OC)[C@H](O)[C@@H](C)/C=C(\C)[C@@H]1OC(N)=O)C2=O	DNA-dependent protein kinase catalytic subunit (Homo sapiens)	5

The reported numbers originate from ChEMBL document CHEMBL1134011.
